# Organism: Oryctolagus cuniculus
# protocolSummary: Inhibitory activity tested against eucaryotic translation in Rabbit Reticulocyte Lysate System L 4540
# Format: functional
assayReadout: IC50 (nM)

Solved cases (4 shown):
CC(=O)O.CN(C(=O)C[C@@H](N)CCCN=C(N)N)C1CN=C(Nc2ccccn2)NC1=O (stereo partly drawn) | 70
CN(C(=O)C[C@@H](N)CCCN=C(N)N)C1CN=C(NC(N)=O)NC1=O.Cl.Cl (stereo partly drawn) | 170
CN(C(=O)C[C@@H](N)CCCCN)C1CN=C(NC(N)=O)NC1=O.Cl.Cl (stereo partly drawn) | 2800
CC(=O)O.CN(C(=O)C[C@@H](N)CCCN=C(N)N)C1CN=C(Nc2ccc3ccccc3n2)NC1=O (stereo partly drawn) | 100

1. Br.CN(C(=O)C[C@@H](N)CCCN=C(N)N)C1CN=C(Nc2ncccn2)NC1=O (stereo partly drawn)
2. CN(C(=O)C[C@@H](N)CCCCN)C1CN=C(Nc2ncccn2)NC1=O.Cl.Cl (stereo partly drawn)
3. CC(=O)O.CN(C(=O)C[C@@H](N)CCCCN)C1CN=C(Nc2ccc3ccccc3n2)NC1=O (stereo partly drawn)
Rank entries according to their IC50, from the largest number down. Output spec: a listing of the labels in the requested order.
2, 1, 3
(2: 380 nM, 1: 100 nM, 3: 50 nM)
